System: NCI-H1703
METHOD SUMMARY: relative viability (nuclei count vs DMSO), 5 days (fraction); higher = more cells survive
CONDITION PARAMETERS: first compound 0.04 µM
MEASURE: relative viability

[
  {
    "COMPOUND": "C[C@@H]1CN(CC(=O)Nc2ccc3c(c2)Cc2cccc(-c4cc(=O)cc(N5CCOCC5)o4)c2S3)C[C@H](C)O1 + CC1(C)CCC(c2ccc(Cl)cc2)=C(CN2CCN(c3ccc(C(=O)NS(=O)(=O)c4ccc(N[C@H](CCN5CCOCC5)CSc5ccccc5)c(S(=O)(=O)C(F)(F)F)c4)cc3)CC2)C1 [Navitoclax] (partner 0.5 µM)",
    "NUMBER": 1.42
  },
  {
    "COMPOUND": "Clc1ccc(Nc2nnc(Cc3ccncc3)c3ccccc23)cc1 [Vatalanib] + NC(=O)Nc1cc(-c2cccc(F)c2)sc1C(=O)N[C@H]1CCCNC1 [AZD7762] (partner 0.2 µM)",
    "NUMBER": 0.128
  },
  {
    "COMPOUND": "Clc1ccc(Nc2nnc(Cc3ccncc3)c3ccccc23)cc1 [Vatalanib] + O=C(c1cc(Cc2n[nH]c(=O)c3ccccc23)ccc1F)N1CCN(C(=O)C2CC2)CC1 [Olaparib] (partner 8 µM)",
    "NUMBER": 0.506
  },
  {
    "COMPOUND": "C[C@@H]1CN(CC(=O)Nc2ccc3c(c2)Cc2cccc(-c4cc(=O)cc(N5CCOCC5)o4)c2S3)C[C@H](C)O1 + CS(=O)(=O)N1CCN(Cc2cc3nc(-c4cccc5[nH]ncc45)nc(N4CCOCC4)c3s2)CC1 [Pictilisib] (partner 1 µM)",
    "NUMBER": 0.249
  }
]

---

Tested on: SK-LU-1
METHOD SUMMARY: relative viability (nuclei count vs DMSO), 5 days (fraction); higher = more cells survive
CONDITION PARAMETERS: first compound 0.4 µM

[
  {
    "MOLECULE": "Clc1ccc(Nc2nnc(Cc3ccncc3)c3ccccc23)cc1 [Vatalanib] + CS(=O)(=O)CCNCc1ccc(-c2ccc3ncnc(Nc4ccc(OCc5cccc(F)c5)c(Cl)c4)c3c2)o1 [Lapatinib] (partner 2 µM)",
    "relative viability": 1.21
  },
  {
    "MOLECULE": "C[C@@H]1CN(CC(=O)Nc2ccc3c(c2)Cc2cccc(-c4cc(=O)cc(N5CCOCC5)o4)c2S3)C[C@H](C)O1 + O=C(c1cc(Cc2n[nH]c(=O)c3ccccc23)ccc1F)N1CCN(C(=O)C2CC2)CC1 [Olaparib] (partner 8 µM)",
    "relative viability": 0.575
  },
  {
    "MOLECULE": "COc1cc(N2CCC(C(N)=O)CC2)ccc1Nc1nc(N)c(Cl)c(Nc2ccccc2S(=O)(=O)C(C)C)n1 [HG-5-88-01] + Cc1nc(Nc2ncc(C(=O)Nc3c(C)cccc3Cl)s2)cc(N2CCN(CCO)CC2)n1 [Dasatinib] (partner 0.075 µM)",
    "relative viability": 0.106
  },
  {
    "MOLECULE": "C[C@@H]1CN(CC(=O)Nc2ccc3c(c2)Cc2cccc(-c4cc(=O)cc(N5CCOCC5)o4)c2S3)C[C@H](C)O1 + CS(=O)(=O)N1CCN(Cc2cc3nc(-c4cccc5[nH]ncc45)nc(N4CCOCC4)c3s2)CC1 [Pictilisib] (partner 1 µM)",
    "relative viability": 0.702
  },
  {
    "MOLECULE": "COc1cc(N2CCC(C(N)=O)CC2)ccc1Nc1nc(N)c(Cl)c(Nc2ccccc2S(=O)(=O)C(C)C)n1 [HG-5-88-01] + Cc1nc(NC(=O)N2CCC[C@H]2C(N)=O)sc1-c1ccnc(C(C)(C)C(F)(F)F)c1 [Alpelisib] (partner 2 µM)",
    "relative viability": 0.895
  }
]
